Readings of NFkB-Luc fold change in Jurkat stimulated by PHA+ anti-CD28 for the listed binders
- TGT: T1, human OX40 on cells (CHO-hOX40, 293HEK-hOX40, Jurkat-hOX40, activated primary CD4+ T cells) (human, UniProt P43489 29-277)
- T1 sequence (looked up): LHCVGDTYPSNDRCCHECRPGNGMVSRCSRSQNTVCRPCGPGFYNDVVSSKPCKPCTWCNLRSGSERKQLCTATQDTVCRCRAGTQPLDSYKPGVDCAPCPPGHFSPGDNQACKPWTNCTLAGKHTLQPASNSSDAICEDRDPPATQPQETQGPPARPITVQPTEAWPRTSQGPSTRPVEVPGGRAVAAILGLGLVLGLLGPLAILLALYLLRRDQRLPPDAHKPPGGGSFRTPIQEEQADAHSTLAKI
- TEST: cell-based or functional assay
RECORDED_METRIC: NFkB-Luc fold change in Jurkat stimulated by PHA+ anti-CD28 (fold over IgG4 control)

BINDER	READOUT_VALUE
ADI-20048, IgG1 format (antibody, V domains shown, Made in yeast) VH: QVQLQESGPGLVKPSETLSLTCTVSGGSISSYYWSWIRQPPGKGLEWIGYIYSSGSTNYNPSLKSRVTISVDTSKNQFSLKLSSVTAADTAVYYCARDAPGGSSYQDYYMDVWGKGTTVTVSS VL: EIVLTQSPATLSLSPGERATLSCRASQSVSSYLAWFQQKPGQAPRLLIYDASNRATGIPARFSGSGSGTDFTLTISSLEPEDFAVYYCQQAFSMPPTFGGGTKVEIKR	3.63
OX40L (control reagent; recombinant OX40L, Acro Biosystems) (ligand, UniProt P23510 51-183, looked up, may be the same reagent as OX40L-hFc) QVSHRYPRIQSIKVQFTEYKKEKGFILTSQKEDEIMKVQNNSVIINCDGFYLISLKGYFSQEVNISLHYQKDEEPLFQLKKVRSVNSLMVASLTYKDKVYLNVTTDNTSLDDFHVNGGELILIHQNPGEFCVL	4.82
ADI-20113, IgG1 format (antibody, V domains shown, Made in yeast) VH: QVQLVESGGGVVQPGRSLRLSCAASGFTFSSYGMHWVRQAPGKGLEWVAVISYDGSNKYYADSVKGRFTISRDNSKNTLYLQMNSLRAEDTAVYYCARGRPWYSETGTSAFDIWGQGTMVTVSS VL: EIVMTQSPATLSVSPGERATLSCRASQSVSSNLAWYQQKPGQAPRLLIYSASTRATGIPARFSGSGSGTEFTLTISSLQSEDFAVYYCQQHNVYPPYTFGGGTKVEIKR	3.79
